- Assayed System: Type-1 angiotensin II receptor (Oryctolagus cuniculus, UniProt P34976)
- Sequence (P34976 whole entry): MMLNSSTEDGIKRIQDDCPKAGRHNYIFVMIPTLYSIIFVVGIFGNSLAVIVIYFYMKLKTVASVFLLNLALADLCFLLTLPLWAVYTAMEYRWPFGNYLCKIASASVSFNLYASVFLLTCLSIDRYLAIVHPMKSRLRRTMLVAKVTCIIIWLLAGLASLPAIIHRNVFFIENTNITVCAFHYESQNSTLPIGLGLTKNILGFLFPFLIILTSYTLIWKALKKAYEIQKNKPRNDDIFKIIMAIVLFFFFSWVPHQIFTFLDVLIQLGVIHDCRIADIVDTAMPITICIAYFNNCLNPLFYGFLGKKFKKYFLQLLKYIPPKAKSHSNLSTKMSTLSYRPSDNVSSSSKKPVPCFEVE
- Test: pA2 value determined in vitro against angiotensin II receptor, type 1 using rabbit aortic rings
- Condition Notes: read-out: pA2 (converted)
Property Name: log10 of Kb (log10 of the value in nM)
Give log10 of Kb, with Kb taken in nM.

// query Which log10 of Kb is listed for CCCCN(Cc1ccc(-c2ccccc2-c2nnn[nH]2)cc1)c1ncnc2nccnc12 ?
// result 2.06

// query Entry CCc1nc(NCc2ccc(-c3ccccc3-c3nn[nH]n3)cc2)c2c[nH]nc2n1 has what log10 of Kb?
// result 2.14

// query Find the recorded log10 of Kb belonging to CCCCN(Cc1ccc(-c2ccccc2-c2nnn[nH]2)cc1)c1ncnc2cccnc12 and report it.
// result 2.89

// query I have this molecule here, CCc1nc(NCc2ccc(-c3ccccc3-c3nn[nH]n3)cc2)c2ccccc2n1 , and I need its recorded log10 of Kb.
// result 0.47

// query // returns reported log10 of Kb for input CCCCN(Cc1ccc(-c2ccccc2-c2nnn[nH]2)cc1)c1ncnc2nc[nH]c12
// result 0.83

// query Return reported log10 of Kb; argument: CCCCN(Cc1ccc(-c2ccccc2-c2nn[nH]n2)cc1)c1ncnc2ccc(C(=O)OC)cc12
// result 2.03

// query Suppose we examine the molecule CCCN(Cc1ccc(-c2ccccc2-c2nnn[nH]2)cc1)c1ncnc2[nH]cnc12 ; what log10 of Kb value has been reported?
// result 1.08

// query GET /values?readout=log10 of Kb&item= CCc1nc(N(C)Cc2ccc(-c3ccccc3-c3nn[nH]n3)cc2)c2cc(OC)ccc2n1
// result 1.68

// query # get_value(readout='log10 of Kb', item= CCCCN(Cc1ccc(-c2ccccc2-c2nn[nH]n2)cc1)c1ncnc2c1nnn2C )
// result 1.03

// query I would be grateful if you could share the reported log10 of Kb for CCCCN(Cc1ccc(-c2ccccc2-c2nnn[nH]2)cc1)c1ncnc2ccc(OC)cc12 .
// result 1.68

// query Item under review: CCCN(Cc1ccc(-c2ccccc2-c2nn[nH]n2)cc1)c1ncnc2c1ncn2Cc1ccccc1 . Reported log10 of Kb?
// result 2.18

// query # lookup: log10 of Kb of CCCN(Cc1ccc(-c2ccccc2-c2nnn[nH]2)cc1)c1ncnc2c1ncn2CC(=O)O
// result 0.86

// query Reported log10 of Kb for CCc1nc(NCc2ccc(-c3ccccc3-c3nn[nH]n3)cc2)c2cc(C(=O)O)ccc2n1 : what is it?
// result 0.41

// query Given the entry CCCCN(Cc1ccc(-c2ccccc2-c2nn[nH]n2)cc1)c1ncnc2c1nc(C)n2C , report its measured log10 of Kb.
// result 0.97

// query Quick check: log10 of Kb of CCCCN(Cc1ccc(-c2ccccc2-c2nn[nH]n2)cc1)c1ncnc2ccc(O)cc12 ?
// result 1.94

// query Quick one: log10 of Kb of CCCCN(Cc1ccc(-c2ccccc2-c2nnn[nH]2)cc1)c1ncnc2cc(C(=O)O)ccc12 ?
// result 1.55

// query Name the recorded log10 of Kb for CCCN(Cc1ccc(-c2ccccc2-c2nn[nH]n2)cc1)c1ncnc2ncn(C)c12 .
// result 2.97

// query Item under review: CCc1nc(NCc2ccc(-c3ccccc3-c3nnn[nH]3)cc2)c2c(OC)cccc2n1 . Reported log10 of Kb?
// result 0.93

// query For the molecule CCCCN(Cc1ccc(-c2ccccc2-c2nnn[nH]2)cc1)c1ncnc2ccc(C(=O)O)cc12 , what log10 of Kb is on record?
// result 0.98

// query I would be grateful if you could share the reported log10 of Kb for CCc1nc(NCc2ccc(-c3ccccc3-c3nnn[nH]3)cc2)c2ncn(C)c2n1 .
// result 0.71

// query Given the entry CCCCN(Cc1ccc(-c2ccccc2-c2nn[nH]n2)cc1)c1ncnc2c1ncn2C , report its measured log10 of Kb.
// result 0.92

// query What measured log10 of Kb goes with CCCCN(Cc1ccc(-c2ccccc2-c2nn[nH]n2)cc1)c1ncnc2ccc(C(=O)O)nc12 ?
// result 0.81

// query Can you look up the measured log10 of Kb of CCCN(Cc1ccc(-c2ccccc2-c2nn[nH]n2)cc1)c1ncccc1C(=O)O for me?
// result -1.30

// query Look at this molecule and give its reported log10 of Kb. CCCCN(Cc1ccc(-c2ccccc2-c2nn[nH]n2)cc1)c1ncnc2c1nc(C#N)n2C
// result 1.86

// query Consider the molecule CCCN(Cc1ccc(-c2ccccc2-c2nn[nH]n2)cc1)c1ncnc2oc(C)nc12 and give its measured log10 of Kb.
// result 1.99

// query # get_value(readout='log10 of Kb', item= CCCCN(Cc1ccc(-c2ccccc2-c2nn[nH]n2)cc1)c1ncnc2c1nc([S+](C)[O-])n2C (centres undefined) )
// result 1.62

// query Value lookup for log10 of Kb; key = CCCN(Cc1ccc(-c2ccccc2-c2nn[nH]n2)cc1)c1ncncc1C(=O)O
// result -0.93

// query For the molecule shown here, CCCCN(Cc1ccc(-c2ccccc2-c2nn[nH]n2)cc1)c1ncnc2c1nc(O)n2C , give the reported log10 of Kb.
// result 1.47

// query Item CCc1nc(NCc2ccc(-c3ccccc3-c3nn[nH]n3)cc2)c2cc(OC)ccc2n1 has what recorded log10 of Kb?
// result 0.42

Hey, just so you know, these numbers are from ChEMBL document CHEMBL1127868.
